The entries below come with measured IC50 values attached.
Test system: SK-N-SH
Experimental Details: Cytotoxicity against human SK-N-SH cells measured after 24 hrs by MTT assay
Type: functional, cell-based
Endpoint Label: IC50 (µmol)

>  <Smiles Entry>
C/C(=N\NC(=O)/C(C#N)=C/c1ccc(O)cc1)c1c(O)c2ccc(O)cc2oc1=O

>  <Val>
8.12

$$$$
>  <Smiles Entry>
COc1cccc2c1C(=O)c1c(O)c3c(c(O)c1C2=O)C[C@@](O)(C(=O)CO)C[C@@H]3O[C@H]1C[C@H](N)[C@H](O)[C@H](C)O1

>  <Val>
6.42

$$$$
>  <Smiles Entry>
C/C(=N\NC(=O)/C(C#N)=C/c1cccc(Br)c1)c1c(O)c2ccc(O)cc2oc1=O

>  <Val>
31.28

$$$$
>  <Smiles Entry>
C/C(=N\NC(=O)/C(C#N)=C/c1cccc([N+](=O)[O-])c1)c1c(O)c2ccc(O)cc2oc1=O

>  <Val>
28.26

$$$$
>  <Smiles Entry>
C/C(=N\NC(=O)/C(C#N)=C/c1ccccc1[N+](=O)[O-])c1c(O)c2ccc(O)cc2oc1=O

>  <Val>
12.26

$$$$
>  <Smiles Entry>
C/C(=N\NC(=O)/C(C#N)=C/c1ccc(Br)cc1)c1c(O)c2ccc(O)cc2oc1=O

>  <Val>
12.05

$$$$
>  <Smiles Entry>
C/C(=N\NC(=O)/C(C#N)=C/c1ccc([N+](=O)[O-])cc1)c1c(O)c2ccc(O)cc2oc1=O

>  <Val>
10.26

$$$$
>  <Smiles Entry>
COc1ccc(/C=C(\C#N)C(=O)N/N=C(\C)c2c(O)c3ccc(O)cc3oc2=O)cc1

>  <Val>
9.46

$$$$
>  <Smiles Entry>
COc1cc(/C=C(\C#N)C(=O)N/N=C(\C)c2c(O)c3ccc(O)cc3oc2=O)cc(OC)c1OC

>  <Val>
14.61

$$$$
>  <Smiles Entry>
C/C(=N\NC(=O)/C(C#N)=C/c1ccccc1Cl)c1c(O)c2ccc(O)cc2oc1=O

>  <Val>
14.02

$$$$
>  <Smiles Entry>
C/C(=N\NC(=O)/C(C#N)=C/c1ccccc1)c1c(O)c2ccc(O)cc2oc1=O

>  <Val>
13.52

$$$$
>  <Smiles Entry>
COc1cc(/C=C(\C#N)C(=O)N/N=C(\C)c2c(O)c3ccc(O)cc3oc2=O)ccc1O

>  <Val>
14.35

$$$$
>  <Smiles Entry>
C/C(=N\NC(=O)/C(C#N)=C/c1ccc(N(C)C)cc1)c1c(O)c2ccc(O)cc2oc1=O

>  <Val>
6.09

$$$$
>  <Smiles Entry>
COc1ccc(/C=C(\C#N)C(=O)N/N=C(\C)c2c(O)c3ccc(O)cc3oc2=O)cc1OC

>  <Val>
21.53

$$$$
